Target: T1, human GLP-2 receptor (human, UniProt O95838 1-553)
T1 sequence (looked up): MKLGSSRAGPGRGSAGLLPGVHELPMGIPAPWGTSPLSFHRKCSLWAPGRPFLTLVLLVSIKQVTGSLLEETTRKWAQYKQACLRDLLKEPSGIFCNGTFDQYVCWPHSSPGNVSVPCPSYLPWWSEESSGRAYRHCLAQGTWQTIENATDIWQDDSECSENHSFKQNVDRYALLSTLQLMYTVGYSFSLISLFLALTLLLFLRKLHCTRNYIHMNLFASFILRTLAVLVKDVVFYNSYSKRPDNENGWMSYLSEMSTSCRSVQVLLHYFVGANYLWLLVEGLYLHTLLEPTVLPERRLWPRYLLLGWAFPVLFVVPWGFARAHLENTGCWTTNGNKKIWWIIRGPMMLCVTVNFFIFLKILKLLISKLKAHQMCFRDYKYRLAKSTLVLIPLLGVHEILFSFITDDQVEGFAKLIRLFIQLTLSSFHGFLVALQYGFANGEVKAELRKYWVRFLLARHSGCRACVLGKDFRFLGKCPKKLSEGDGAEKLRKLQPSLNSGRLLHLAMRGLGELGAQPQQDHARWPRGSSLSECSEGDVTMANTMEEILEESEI
Assay: cell-based or functional assay
Ends that are not written are not given here. * marks the point of attachment. Palmitoyl = CCCCCCCCCCCCCCCC(=O)*; Lauroyl = CCCCCCCCCCCC(=O)*
logEC50 (cAMP) for assorted binders
ATTRIBUTE_MEASURED: logEC50 (cAMP)

BINDER: HADGTFISDYSTILDNLAARDFINWLIQTK(Palmitoyl)ITK [GIP-GLP-2 co-agonist 31]
ATTRIBUTE_MEASURED: logEC50 (cAMP)
RECORDED_NUMBER: -6.97
--
BINDER: HADGTFISDYSTILDNLAAKDFINWLIQTKITK [GIP-GLP-2 co-agonist 28]
ATTRIBUTE_MEASURED: logEC50 (cAMP)
RECORDED_NUMBER: -8.93
--
BINDER: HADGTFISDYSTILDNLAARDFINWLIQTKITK (not fully specified (residue 1, N-terminus); also: C16 acyl group on His 1 (attachment site not given here)) [GIP-GLP-2 co-agonist 29]
ATTRIBUTE_MEASURED: logEC50 (cAMP)
RECORDED_NUMBER: -7.76
--
BINDER: HADGTFSSDYSTILDNLAAK(Palmitoyl)DFINWLIQTKITD [GIP-GLP-2 co-agonist 21]
ATTRIBUTE_MEASURED: logEC50 (cAMP)
RECORDED_NUMBER: -8.22
--
BINDER: HADGTFISDYSTILDNLAARDFINWLIQTKGK(Lauroyl)K [GIP-GLP-2 co-agonist 35]
ATTRIBUTE_MEASURED: logEC50 (cAMP)
RECORDED_NUMBER: -8.63

Taken from patent US20200392198A1.
